Test system: SR leukemia
protocol_summary: NCI tumour cell line growth inhibition, 48 h
Where a SMILES comes first, the peptide text is derived from it. [ ]: non-standard residue; d: D form. The star is where a group is joined. Phe(4-NO2) = N[CH](Cc1ccc([N+](=O)[O-])cc1)C(=O)O; Boc = CC(C)(C)OC(=O)*

>  <compound>
CCOC(=O)CCC(NC(=O)C(Cc1ccc([N+](=O)[O-])cc1)NC(=O)OC(C)(C)C)C(=O)NC(CCC(=O)OCC)C(=O)OCC (centres undefined) (Boc-[Phe(4-NO2)]-Glu(OEt)-Glu(OEt)-OEt; configuration not given here)

>  <measurement_target>
SR leukemia

>  <readout_relation>
=

>  <TGI, µM>
9.38

$$$$
>  <compound>
Clc1ccc(-c2nn3c(COc4cccc(OCc5nnc6sc(-c7ccc(Cl)cc7)nn56)c4)nnc3s2)cc1

>  <measurement_target>
SR leukemia

>  <readout_relation>
=

>  <TGI, µM>
88.9

$$$$
>  <compound>
CC(C)OP(=O)(OC(C)C)C(C(C)C)N(C)C(N)=NC#N (centres undefined)

>  <measurement_target>
SR leukemia

>  <readout_relation>
>

>  <TGI, µM>
100

$$$$
>  <compound>
Oc1cccc2c(Br)ccnc12

>  <measurement_target>
SR leukemia

>  <readout_relation>
=

>  <TGI, µM>
4.31

$$$$
>  <compound>
CC(C)N(C(=O)C12C3C4C5(C(=O)O)C(C1C35I)C42C(=O)O)C(C)C (centres undefined)

>  <measurement_target>
SR leukemia

>  <readout_relation>
>

>  <TGI, µM>
100

$$$$
>  <compound>
Cc1nn(C)c2ncnc(N/N=C/c3cccc(O)c3O)c12

>  <measurement_target>
SR leukemia

>  <readout_relation>
=

>  <TGI, µM>
16.3

$$$$
>  <compound>
O=c1cc(-c2ccccc2)[nH]c2c1CCCC2

>  <measurement_target>
SR leukemia

>  <readout_relation>
>

>  <TGI, µM>
100

$$$$
>  <compound>
C=C(C(=O)OC)[C@@H]1CC2OC1C(=O)C(C)CCC/C(C)=C/CC[C@@]2(C)O (some centres undefined)

>  <measurement_target>
SR leukemia

>  <readout_relation>
=

>  <TGI, µM>
25.1

$$$$
>  <compound>
COC(=O)c1onc(C2OC(C)(C)OC2C(O)COC(c2ccccc2)(c2ccccc2)c2ccccc2)c1C(=O)OC (centres undefined)

>  <measurement_target>
SR leukemia

>  <readout_relation>
>

>  <TGI, µM>
100

$$$$

###

Recorded TGI for the following compounds
System: SW-620 colon
protocol_summary: NCI tumour cell line growth inhibition, 48 h

>  <compound>
COc1c(OC)c(OC)c2c(=O)cc(-c3ccc(OC(C)C)cc3)oc2c1OC

>  <measurement_target>
SW-620 colon

>  <TGI>
> 58.8 µM

$$$$
>  <compound>
COC(=O)/C=C\n1nc(Br)c(=O)[nH]c1=O

>  <measurement_target>
SW-620 colon

>  <TGI>
> 100 µM

$$$$
>  <compound>
O=C(Nc1ccc(-n2cc(-c3ccncc3)c(-c3ccc(O)c(Cl)c3)n2)cc1)c1ccc(Cl)c(C(F)(F)F)c1

>  <measurement_target>
SW-620 colon

>  <TGI>
> 50 µM

$$$$
>  <compound>
O=C(c1ccccc1)c1nnn(Cc2ccccc2Cn2nnc(C(=O)c3ccccc3)c2C(=O)c2ccccc2)c1C(=O)c1ccccc1

>  <measurement_target>
SW-620 colon

>  <TGI>
> 100 µM

$$$$
>  <compound>
Oc1c(Cl)cc2cc1-c1cc(cc(Cl)c1O)CCc1c(cc(Cl)c(O)c1Cl)-c1cc(Cl)c(c(Cl)c1O)/C=C\2

>  <measurement_target>
SW-620 colon

>  <TGI>
31.5 µM

$$$$
>  <compound>
CCOC(=O)c1cc2c3c(c(C(C)=O)c(OC)c2[nH]1)N(C(=O)CC)CC3

>  <measurement_target>
SW-620 colon

>  <TGI>
> 100 µM

$$$$
>  <compound>
Cc1cc2c(=O)c3ccc(Cl)cc3[nH]c2c(C(N)=O)c1C

>  <measurement_target>
SW-620 colon

>  <TGI>
> 100 µM

$$$$
>  <compound>
CCCC(O)c1cn(-c2cccc(S(=O)(=O)O)c2)nn1 (stereo unspecified)

>  <measurement_target>
SW-620 colon

>  <TGI>
> 100 µM

$$$$
>  <compound>
Fc1ccc2c(c1)C1=C(CCC2)C(c2ccc(Cl)cc2)NC(=S)N1 (stereo unspecified)

>  <measurement_target>
SW-620 colon

>  <TGI>
> 100 µM

$$$$
>  <compound>
COc1cccc2c1OC1c3ccccc3OCC1(O)C2 (stereo unspecified)

>  <measurement_target>
SW-620 colon

>  <TGI>
> 100 µM

$$$$
>  <compound>
O=C(O)c1c2c(cc3c(=O)c4ccccc4[nH]c13)CCCC2

>  <measurement_target>
SW-620 colon

>  <TGI>
> 100 µM

$$$$
>  <compound>
Cc1cc(=O)[nH]c(N/N=C/c2ccccc2O)n1

>  <measurement_target>
SW-620 colon

>  <TGI>
> 100 µM

$$$$
>  <compound>
CN1CCN=C1c1nnn(-c2ccc([N+](=O)[O-])cc2)c1-c1ccccc1

>  <measurement_target>
SW-620 colon

>  <TGI>
> 100 µM

$$$$
>  <compound>
CS(=O)(=O)c1ccc(COP(N)(=O)N(CCCl)CCCl)cc1 (stereo unspecified)

>  <measurement_target>
SW-620 colon

>  <TGI>
> 100 µM

$$$$
>  <compound>
COc1cccc(C(C#N)NNC(=O)c2c(Cl)c(Cl)c(Cl)c(Cl)c2-c2nc3ccc(C(=O)c4ccccc4)cc3[nH]2)c1O (stereo unspecified)

>  <measurement_target>
SW-620 colon

>  <TGI>
> 100 µM

$$$$
>  <compound>
CC(OP(=O)(O)O)C(N)C(=O)O (stereo unspecified)

>  <measurement_target>
SW-620 colon

>  <TGI>
> 100 µM

$$$$
>  <compound>
COc1cccc(NC(=O)CC(=O)n2nc(-c3ccccc3)c(N=Nc3ccc(Cl)cc3)c2-c2ccccc2)c1

>  <measurement_target>
SW-620 colon

>  <TGI>
> 100 µM

$$$$
>  <compound>
CC(C)OP(=O)(OC(C)C)C(C(C)C)N(C)C(N)=NC#N (stereo unspecified)

>  <measurement_target>
SW-620 colon

>  <TGI>
> 100 µM

$$$$
>  <compound>
O=C1C=CC(=O)c2c(O)c(N3CCOCC3)c(Cl)c(O)c21

>  <measurement_target>
SW-620 colon

>  <TGI>
0.351 µM

$$$$
>  <compound>
O=c1cc(-c2ccccc2)[nH]c2c1CCCC2

>  <measurement_target>
SW-620 colon

>  <TGI>
> 100 µM

$$$$
>  <compound>
CN1CCN(CCCOc2ccc3nc(Nc4ccc(F)c(F)c4)ccc3c2)CC1

>  <measurement_target>
SW-620 colon

>  <TGI>
3.71 µM

$$$$
>  <compound>
CCOC(=O)c1c(-c2ccccc2)[n+](=O)c2cc(F)c(F)cc2n1[O-]

>  <measurement_target>
SW-620 colon

>  <TGI>
3.57 µM

$$$$
>  <compound>
COc1ccc2nc(C)cc(Sc3nc4ccccc4s3)c2c1

>  <measurement_target>
SW-620 colon

>  <TGI>
2.98 µM

$$$$
>  <compound>
CCCCNS(=O)(=O)c1ccc(-c2ccc3c(c2)-c2ccc(S(=O)(=O)NCCCC)cc2S3(=O)=O)cc1

>  <measurement_target>
SW-620 colon

>  <TGI>
> 100 µM

$$$$
>  <compound>
Cc1nn(C)c2ncnc(N/N=C/c3cccc(O)c3O)c12

>  <measurement_target>
SW-620 colon

>  <TGI>
> 100 µM

$$$$
>  <compound>
C=CC1C(CC2OC(CO)C(O)C(O)C2O)OC=C2C(=O)OCCC21O (stereo unspecified)

>  <measurement_target>
SW-620 colon

>  <TGI>
29.9 µM

$$$$
>  <compound>
O=C1c2ccncc2C(=O)c2c(O)ccc(O)c21

>  <measurement_target>
SW-620 colon

>  <TGI>
11.5 µM

$$$$
>  <compound>
COc1ccc(Br)c(CN2CCc3ccccc32)c1OS(=O)(=O)c1ccc(C)cc1

>  <measurement_target>
SW-620 colon

>  <TGI>
> 100 µM

$$$$
>  <compound>
COC(=O)c1onc(C2OC(C)(C)OC2C(O)COC(c2ccccc2)(c2ccccc2)c2ccccc2)c1C(=O)OC (stereo unspecified)

>  <measurement_target>
SW-620 colon

>  <TGI>
> 100 µM

$$$$
>  <compound>
CC(=O)/C=C/c1ccccc1

>  <measurement_target>
SW-620 colon

>  <TGI>
> 100 µM

$$$$
>  <compound>
c1cc2cc3c4c5c(cc6ccc7cc8cc9c%10c8c8c7c6c5c8c5c%10c(c1C9N1CCOCCOCCOCCOCCOCC1)c2c45)C3 (stereo unspecified)

>  <measurement_target>
SW-620 colon

>  <TGI>
> 100 µM

$$$$
>  <compound>
CCc1ccc2oc(=O)ccc2c1

>  <measurement_target>
SW-620 colon

>  <TGI>
> 100 µM

$$$$
>  <compound>
O=C1CC(C2(O)C(=O)Nc3ccc([N+](=O)[O-])cc32)c2ccccc21 (stereo unspecified)

>  <measurement_target>
SW-620 colon

>  <TGI>
81.6 µM

$$$$
>  <compound>
O=C1Nc2cccc(Cl)c2/C1=C\c1c(-c2ccccc2)nc2n1CCS2

>  <measurement_target>
SW-620 colon

>  <TGI>
35.2 µM

$$$$
>  <compound>
O=C1CS/C(=N/S(=O)(=O)c2ccc(N3N=C4c5ccccc5CC4C3c3cccs3)cc2)N1C(=O)c1ccccc1 (stereo unspecified)

>  <measurement_target>
SW-620 colon

>  <TGI>
> 100 µM

$$$$
>  <compound>
COC(=O)[C@@H](NS(=O)(=O)CC12CCC(CC1)C2(C)C)C(C)(C)C

>  <measurement_target>
SW-620 colon

>  <TGI>
> 100 µM

$$$$
>  <compound>
Oc1cccc2c(Br)ccnc12

>  <measurement_target>
SW-620 colon

>  <TGI>
16.7 µM

$$$$
>  <compound>
O=c1c2ccccc2oc2ccccc12 (tested in a mixture with another compound)

>  <measurement_target>
SW-620 colon

>  <TGI>
> 100 µM

$$$$
>  <compound>
O=C1NC(=O)C(=Cc2cn(Cc3ccccc3)c3ccccc23)C(=O)N1

>  <measurement_target>
SW-620 colon

>  <TGI>
28.9 µM

$$$$
>  <compound>
Cc1c(OCc2cccc3ccccc23)ccc2c(=O)cc(SCCN3CCOCC3)oc12

>  <measurement_target>
SW-620 colon

>  <TGI>
> 100 µM

$$$$
>  <compound>
COc1cc2c3c(n(C)c(=O)c2cc1OC)-c1cc2c(cc1/C3=C\CCCCCBr)OCO2

>  <measurement_target>
SW-620 colon

>  <TGI>
> 100 µM

$$$$
